Protocol Description: Lipophilicity, log P of the compound
Type: physicochemical
Condition: octanol/water
Attribute Measured: logP

> print(dat)
                                   compound  reported.measurement
1  NC1=N[C@@]2(c3cc(NC(=O)c4ccc(F)cn4)ccc3F)CN(c3ncc(F)cn3)C[C@H]2CS1 (relative stereo)                   3.1

P: C[C@@H]1C[C@H]1CNC(=O)[C@@H]1C[C@H]1[C@]12COC[C@H]1CSC(N)=N2
Q: COc1cnc(C(=O)Nc2ccc(F)c([C@]34CN(c5ncc(F)cn5)C[C@H]3CSC(N)=N4)c2)cn1
Lower value of logP belongs to which: P or Q ? Kindly give the label for the entry you pick.
P
(P: 0.8, Q: 3.2)

----------
Protocol Description: Stability in rat liver microsomes at 2 uM measured upto 30 mins in presence of NADPH by LC-MS/MS analysis
Type: ADME, Microsome
Condition: read-out: Stability
Attribute Measured: remaining at 0.5 h, 2 µM (%)

> print(dat)
                                   compound        attribute.measured  reported.measurement
1  COc1cnc(C(=O)Nc2ccc(F)c([C@]34CN(c5ncc(F)cn5)C[C@H]3CSC(N)=N4)c2)cn1  remaining at 0.5 h, 2 µM                     7
2  C[C@@H]1C[C@H]1CNC(=O)[C@@H]1C[C@H]1[C@]12COC[C@H]1CSC(N)=N2  remaining at 0.5 h, 2 µM                    84
3  NC1=N[C@@]2(c3cc(NC(=O)c4ncc(F)cc4F)ccc3F)CN(c3ncc(F)cn3)C[C@H]2CS1  remaining at 0.5 h, 2 µM                     7

I: C[C@@H]1C[C@H]1COC(C)(C)[C@@H]1C[C@H]1[C@]12CN(c3ncccn3)C[C@H]1CSC(N)=N2
II: NC1=N[C@@]2(c3cc(NC(=O)c4ccc(F)cn4)ccc3F)CN(c3ncc(F)cn3)C[C@H]2CS1 (relative stereo)
Lower value of remaining at 0.5 h, 2 µM belongs to which: I or II ? Kindly give the label for the entry you pick.
II

a: C[C@@H]1C[C@H]1CNC(=O)[C@@H]1C[C@H]1[C@]12CN(c3ncccn3)C[C@H]1CSC(N)=N2
b: NC1=N[C@@]2(c3cc(NC(=O)c4ccc(F)cn4)ccc3F)COC[C@H]2CS1
API: POST /compare with a and b ; response names the item with higher remaining at 0.5 h, 2 µM. Kindly give the label for the entry you pick.
a
(a: 55%, b: 19%)

----------
Protocol Description: Lipophilicity, log P of the compound
Format: physicochemical
Condition: octanol/water
Attribute Measured: logP

Answered examples (6):
> print(dat)
                            chemical.smiles  reported.measurement
1  C[C@@]1(c2cc(-c3cncnc3)c(F)cc2F)CCSC(N)=N1                   2.9
2  Cl.N#Cc1ccc([C@]23CN(c4ncc(F)cn4)C[C@H]2CSC(N)=N3)s1                   2.3
3  Cl.NC1=N[C@@]2(c3cnccn3)CN(c3ncc(F)cn3)C[C@H]2CS1                   0.8
4  NC1=N[C@@]2(c3cc(NC(=O)c4ccc(F)cn4)ccc3F)COC[C@H]2CS1                   2.1
5  C[C@@H]1C[C@H]1CNC(=O)[C@@H]1C[C@H]1[C@]12CN(c3ncccn3)C[C@H]1CSC(N)=N2                     2
6  NC1=N[C@@]2(c3cc(NC(=O)c4ncc(F)cc4F)ccc3F)CN(c3ncc(F)cn3)C[C@H]2CS1                   2.8

I: Cl.NC1=N[C@@]2(c3cccs3)CN(c3ncc(F)cn3)C[C@H]2CS1
II: Cl.NC1=N[C@@]2(c3ccns3)CN(c3ncc(F)cn3)C[C@H]2CS1
API: POST /compare with I and II ; response names the item with higher logP. Kindly give the label for the entry you pick.
I

Every entry's value here was drawn from ChEMBL document CHEMBL5033995.
